# ASSAY TARGET: 5-HT2A (Homo sapiens)
# MEASUREMENT DESCRIPTION: Serotonin 5-HT2A in vitro cellular IPOne agonism assay (HTRF)
# MEASUREMENT CONTEXT: CHO-K1 cells, agonist mode
PARAMETER: EC50

In the examples that follow, each entry is paired with its recorded EC50.
CN1CCc2[nH]c3ccc(OCc4ccccc4)cc3c2CC1	> 10 µM
c1ccc(Oc2ccc3c4c([nH]c3c2)CCNCC4)cc1	1 to 10 µM
c1ccc(Oc2cccc3[nH]c4c(c23)CCNCC4)cc1	0.01 to 0.1 µM

GET /values?readout=EC50&item= `CN1CCc2c(n(C)c3cc(OCc4ccccc4)ccc23)CC1`
> 10 µM

###

# Test system: rat cortical neurons
# MEASUREMENT DESCRIPTION: Neurite outgrowth assay
# Format: cell-based
# Parameters: key: A: Statistically significant mean increase as a percent of DMSO control at 10 μM or less.; B: No statistically significant mean increase as a percent of DMSO control at 10 μM or less
# MEASUREMENT CONTEXT: 72 h, 10 μM or less, vs DMSO control
PARAMETER: Increase in Neurite Length

In the examples that follow, each entry is paired with its recorded Increase in Neurite Length.
CN1CCc2[nH]c3cc(OCc4ccccc4)ccc3c2CC1	A
Cn1c2c(c3ccc(OCc4ccc(F)cc4)cc31)CCNCC2	B
CN1CCc2c(n(C)c3cc(OCc4ccc(F)cc4)ccc23)CC1	B
CN1CCc2[nH]c3c(OCc4ccccc4)cccc3c2CC1	A

GET /values?readout=Increase in Neurite Length&item= `CN1CCc2c(n(C)c3cc(OCc4ccccc4)ccc23)CC1`
B

Another: `c1ccc(COc2cccc3c4c([nH]c23)CCNCC4)cc1`
A

Another: `Fc1ccc(Oc2cccc3[nH]c4c(c23)CCNCC4)cc1`
B

Another: `CN1CCc2c(n(C)c3cc(Oc4ccc(F)cc4)ccc23)CC1`
A

Another: `CN1CCc2[nH]c3cc(Oc4ccc(F)cc4)ccc3c2CC1`
A

###

# ASSAY TARGET: 5-HT2A (Homo sapiens, UniProt P28223)
# Sequence (P28223 whole entry): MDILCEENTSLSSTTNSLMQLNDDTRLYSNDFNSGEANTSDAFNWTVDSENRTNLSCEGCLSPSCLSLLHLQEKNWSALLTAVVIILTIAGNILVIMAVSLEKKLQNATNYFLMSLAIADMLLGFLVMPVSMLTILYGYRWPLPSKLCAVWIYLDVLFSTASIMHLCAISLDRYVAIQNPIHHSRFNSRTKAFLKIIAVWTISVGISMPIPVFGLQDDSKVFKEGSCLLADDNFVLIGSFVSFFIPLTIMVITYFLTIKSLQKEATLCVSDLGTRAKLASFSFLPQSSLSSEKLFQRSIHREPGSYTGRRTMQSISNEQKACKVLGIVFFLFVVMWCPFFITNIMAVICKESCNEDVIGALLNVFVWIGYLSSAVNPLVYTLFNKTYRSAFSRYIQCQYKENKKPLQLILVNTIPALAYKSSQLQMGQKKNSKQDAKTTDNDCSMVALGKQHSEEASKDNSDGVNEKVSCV
# MEASUREMENT DESCRIPTION: Serotonin 5-HT2A in vitro cellular IPOne antagonism assay
# Assay type: cell-based
# Parameters: host or cells: CHO-K1
# MEASUREMENT CONTEXT: CHO-K1 cells, antagonist mode, reference agonist a-Me-5HT
# Description: Serotonin 5-HT2A and 5-HT2C In Vitro Cellular IPOne Antagonism Assay. The 5-HT2A IPOne HTRF assay was performed at Epics Therapeutics S.A. (Belgium, FAST-0505I) in antagonism mode using conventional methods. […] For antagonist testing, a reference agonist a-Me-5HT was added and fluorescence signal monitored for several minutes, followed by addition of 20 μl of assay buffer plus 20 μl of test compound or reference antagonist ketanserin, in each well. […]
PARAMETER: IC50

In the examples that follow, each entry is paired with its recorded IC50.
CN1CCc2[nH]c3cc(OCc4ccccc4)ccc3c2CC1	101 to 1000 nM
Fc1ccc(COc2ccc3c4c([nH]c3c2)CCNCC4)cc1	101 to 1000 nM
CN1CCc2c(n(C)c3cc(Oc4ccccc4)ccc23)CC1	1000 to 10000 nM
CN1CCc2[nH]c3cc(Oc4ccc(F)cc4)ccc3c2CC1	101 to 1000 nM
CN1CCc2[nH]c3cc(OCc4ccc(F)cc4)ccc3c2CC1	10 to 100 nM
CN1CCc2[nH]c3c(Br)ccc(OCc4ccccc4)c3c2CC1	10 to 100 nM

GET /values?readout=IC50&item= `CN1CCc2[nH]c3cccc(Oc4ccc(F)cc4)c3c2CC1`
10 to 100 nM

Another: `Cn1c2c(c3ccc(OCc4ccc(F)cc4)cc31)CCNCC2`
101 to 1000 nM

Another: `Cn1c2c(c3c(OCc4ccccc4)cccc31)CCNCC2`
101 to 1000 nM

Another: `c1ccc(Oc2ccc3c4c([nH]c3c2)CCNCC4)cc1`
101 to 1000 nM

Another: `CN1CCc2c(n(C)c3cc(OCc4ccc(F)cc4)ccc23)CC1`
10 to 100 nM

###

# Test system: rat cortical neurons
# MEASUREMENT DESCRIPTION: Neurite outgrowth assay
# Assay type: cell-based
# Parameters: key: A: Statistically significant mean increase as a percent of DMSO control at 10 μM or less.; B: No statistically significant mean increase as a percent of DMSO control at 10 μM or less
# MEASUREMENT CONTEXT: 72 h, 10 μM or less, vs DMSO control
PARAMETER: Increase in Neurite Number

In the examples that follow, each entry is paired with its recorded Increase in Neurite Number.
Cn1c2c(c3ccc(OCc4ccccc4)cc31)CCNCC2 [Compound 5]	B
CN1CCc2[nH]c3cc(OCc4ccc(F)cc4)ccc3c2CC1 [Compound 8]	A
Cn1c2c(c3ccc(OCc4ccc(F)cc4)cc31)CCNCC2 [Compound 9]	B
CN1CCc2[nH]c3cc(Oc4ccccc4)ccc3c2CC1 [Compound 12]	A
Fc1ccc(COc2ccc3c4c([nH]c3c2)CCNCC4)cc1 [Compound 7]	B
Fc1ccc(Oc2cccc3[nH]c4c(c23)CCNCC4)cc1 [Compound 21]	B

GET /values?readout=Increase in Neurite Number&item= CN1CCc2[nH]c3cc(OCc4ccccc4)ccc3c2CC1 [Compound 1]
A

Another: c1ccc(COc2ccc3c4c([nH]c3c2)CCNCC4)cc1 [Compound 3]
A

Another: c1ccc(COc2cccc3[nH]c4c(c23)CCNCC4)cc1 [Compound 4]
B

Another: CN1CCc2c(n(C)c3cc(Oc4ccc(F)cc4)ccc23)CC1 [Compound 18]
A

Another: CN1CCc2[nH]c3cccc(Oc4ccc(F)cc4)c3c2CC1 [Compound 22]
A

###

In this section, each of the compounds is paired with its reported EC50.
# ASSAY TARGET: 5-HT2A (Homo sapiens, UniProt P28223)
# MEASUREMENT DESCRIPTION: Serotonin 5-HT2A in vitro cellular IPOne agonism assay (HTRF)
# MEASUREMENT CONTEXT: CHO-K1 cells, agonist mode

In the examples that follow, each entry is paired with its recorded EC50.
CN1CCc2[nH]c3c(Br)ccc(OCc4ccccc4)c3c2CC1	10 to 100 nM
CN1CCc2[nH]c3cc(OCc4ccccc4)ccc3c2CC1	> 10000 nM
CN1CCc2[nH]c3cc(Oc4ccccc4)ccc3c2CC1	> 10000 nM

GET /values?readout=EC50&item= `Cn1c2c(c3ccc(Oc4ccccc4)cc31)CCNCC2`
101 to 1000 nM

Another: `CN1CCc2[nH]c3cccc(Oc4ccc(F)cc4)c3c2CC1`
> 10000 nM

###

# ASSAY TARGET: 5-HT2A (Homo sapiens, UniProt P28223)
# MEASUREMENT DESCRIPTION: Serotonin 5-HT2A in vitro radioligand binding competition assay ([3H]-DOI)
# Design: purchased Epics Therapeutics S.A. (Belgium) FAST-0505B; host or cells: membrane extracts
# MEASUREMENT CONTEXT: [3H]-DOI competition, membrane extracts
pIC50: −log10 of the molar value.
In this section, each of the compounds is paired with its reported pIC50.

In the examples that follow, each entry is paired with its recorded pIC50.
Fc1ccc(Oc2cccc3[nH]c4c(c23)CCNCC4)cc1	7.00 to 8.00
CN1CCc2c(n(C)c3cc(Oc4ccccc4)ccc23)CC1	5.00 to 6.00
Fc1ccc(COc2ccc3c4c([nH]c3c2)CCNCC4)cc1	6.00 to 7.00
CN1CCc2[nH]c3c(OCc4ccccc4)cccc3c2CC1	7.00 to 8.00
c1ccc(Oc2ccc3c4c([nH]c3c2)CCNCC4)cc1	5.00 to 6.00
Cn1c2c(c3ccc(Oc4ccc(F)cc4)cc31)CCNCC2	6.00 to 7.00

GET /values?readout=pIC50&item= `Fc1ccc(Oc2ccc3c4c([nH]c3c2)CCNCC4)cc1`
6.00 to 7.00

Another: `CN1CCc2[nH]c3cc(Oc4ccccc4)ccc3c2CC1`
6.00 to 7.00

Another: `CN1CCc2c(n(C)c3cc(OCc4ccc(F)cc4)ccc23)CC1`
6.00 to 7.00

###

# Test system: rat cortical neurons
# MEASUREMENT DESCRIPTION: Neurite outgrowth assay
# Format: cell-based
# Set-up: key: A: Statistically significant mean increase as a percent of DMSO control at 10 μM or less.; B: No statistically significant mean increase as a percent of DMSO control at 10 μM or less
# MEASUREMENT CONTEXT: 72 h, 10 μM or less, vs DMSO control
PARAMETER: Increase in Neurite Length

CN1CCc2c(n(C)c3cccc(Oc4ccc(F)cc4)c23)CC1	A
c1ccc(COc2cccc3[nH]c4c(c23)CCNCC4)cc1	B
CN1CCc2[nH]c3c(Br)ccc(OCc4ccccc4)c3c2CC1	A
CN1CCc2[nH]c3cc(OCc4ccc(F)cc4)ccc3c2CC1	A

GET /values?readout=Increase in Neurite Length&item= `Cn1c2c(c3c(OCc4ccccc4)cccc31)CCNCC2`
B
